Biological target: Tyrosine-protein kinase JAK3 (Homo sapiens, UniProt P52333)
Sequence (P52333 whole entry): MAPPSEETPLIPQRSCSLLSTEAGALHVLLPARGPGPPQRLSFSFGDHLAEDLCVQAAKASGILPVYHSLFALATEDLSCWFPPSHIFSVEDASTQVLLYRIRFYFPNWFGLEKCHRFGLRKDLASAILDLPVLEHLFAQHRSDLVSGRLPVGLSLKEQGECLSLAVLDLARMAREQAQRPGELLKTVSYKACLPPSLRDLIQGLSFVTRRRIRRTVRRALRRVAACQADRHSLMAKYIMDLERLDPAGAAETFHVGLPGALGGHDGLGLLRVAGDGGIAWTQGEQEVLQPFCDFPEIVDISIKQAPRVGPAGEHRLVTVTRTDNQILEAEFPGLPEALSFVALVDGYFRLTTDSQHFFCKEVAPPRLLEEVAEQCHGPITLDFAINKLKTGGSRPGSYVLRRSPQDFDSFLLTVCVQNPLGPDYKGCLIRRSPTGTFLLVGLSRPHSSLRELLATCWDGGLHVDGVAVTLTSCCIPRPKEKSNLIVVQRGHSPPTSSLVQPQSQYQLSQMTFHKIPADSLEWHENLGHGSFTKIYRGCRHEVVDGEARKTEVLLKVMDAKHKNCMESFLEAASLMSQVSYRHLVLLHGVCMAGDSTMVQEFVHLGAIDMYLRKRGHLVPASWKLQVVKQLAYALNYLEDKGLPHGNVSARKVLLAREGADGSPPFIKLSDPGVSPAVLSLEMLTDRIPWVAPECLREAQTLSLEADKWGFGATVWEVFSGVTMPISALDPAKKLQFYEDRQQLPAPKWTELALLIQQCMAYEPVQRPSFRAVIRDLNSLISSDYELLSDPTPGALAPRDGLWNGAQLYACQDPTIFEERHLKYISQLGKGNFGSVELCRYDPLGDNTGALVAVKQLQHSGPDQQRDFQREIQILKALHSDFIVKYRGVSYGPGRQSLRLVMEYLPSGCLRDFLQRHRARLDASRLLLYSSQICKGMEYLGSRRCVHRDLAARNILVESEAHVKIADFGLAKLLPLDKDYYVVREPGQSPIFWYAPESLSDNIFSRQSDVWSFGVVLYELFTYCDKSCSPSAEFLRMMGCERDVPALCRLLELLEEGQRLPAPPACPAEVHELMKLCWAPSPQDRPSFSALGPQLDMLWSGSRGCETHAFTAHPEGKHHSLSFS
Outcome Measure: IC50

- Structure Notation: "O=C1c2ccccc2-c2n[nH]c3cccc1c23"
  Recorded Measurement: "957 nM"
